These data points were gathered from PubChem BioAssay (NCI).

- Tested on: LOX IMVI melanoma
- assay-procedure: NCI tumour cell line growth inhibition, 48 h
recorded-endpoint: TGI

>>> recorded_value("O=C(Nc1ccc(N2CCNCC2)cc1)c1[nH]ncc1Nc1ncnc2sc3c(c12)CCC3")
"1.8 µM"
>>> recorded_value("CC(=O)OC[C@H]1O[C@@H](O[C@H]2[C@H](OC(C)=O)C=CO[C@@H]2COC(C)=O)C(OC(C)=O)[C@H]2OC(C)(C)O[C@H]21 (stereo not given in full)")
"> 100 µM"
>>> recorded_value("COc1ccc2[nH]c3c(c2c1)CCN(C)CC3")
"> 100 µM"
>>> recorded_value("O=C(O)c1c(-c2cccc3ccccc23)sc(-c2cccc3ccccc23)c1C(=O)O")
"> 100 µM"
>>> recorded_value("COC(=O)/C=C/c1ccccc1N=[S@](C)(=O)c1ccc(C)cc1")
"> 100 µM"
